Experiment: physchem
Format: physicochemical
Details: benzyl benzoate, organic solvent or mixture
Procedure: Because the antiarthritic triazine compound is a base, organic acids as counter-ions were studied to improve drug solubility. […] Additional drug complexes were prepared with various organic and inorganic acids. […] The inherent insolubility of the drug appears to be responsible, to some extent, for the preceding results. […]
Property label: solubility (µg/mL)
Numbers only here, please. The scale is µg/mL.

Challenge: Identify measured solubility associated with CC(C)(C)C(C)(C)Nc1nc(NC(C)(C)C(C)(C)C)nc(N2CC3CCC(CC3)C2)n1 [Antiarthritic Triazine Compound]
Response given: 1300

* * *

test: Solubility of bisantrene in selected media and biological fluids (Table IB); assay type: physicochemical; settings: Plasma, pH 7.7-8.2
Property label: solubility (mg/mL)
Numbers only here, please. The scale is mg/mL.

Challenge: Identify measured solubility associated with C(=N\NC1=NCCN1)/c1c2ccccc2c(/C=N/NC2=NCCN2)c2ccccc12 [Bisantrene]
Response given: 0.09

* * *

experiment: physchem; assay type: physicochemical; settings: propylene glycol isostearate, organic solvent or mixture
Property label: solubility (µg/mL)
Numbers only here, please. The scale is µg/mL.

Challenge: Identify measured solubility associated with CC(C)(C)C(C)(C)Nc1nc(NC(C)(C)C(C)(C)C)nc(N2CC3CCC(CC3)C2)n1 [Antiarthritic Triazine Compound]
Response given: 1500

* * *

experiment: Solubility of bisantrene in selected media and biological fluids (Table IB); assay type: physicochemical; conditions: 5% dextrose solution, pH 4.6
Property label: solubility (µg/mL)
Numbers only here, please. The scale is µg/mL.

Challenge: Identify measured solubility associated with C(=N\NC1=NCCN1)/c1c2ccccc2c(/C=N/NC2=NCCN2)c2ccccc12
Response given: 10000

* * *

experiment: physchem; assay type: physicochemical; conditions: brij 35 2% solution
Property label: solubility (µg/mL)
Numbers only here, please. The scale is µg/mL.

Challenge: Identify measured solubility associated with CC(C)(C)C(C)(C)Nc1nc(NC(C)(C)C(C)(C)C)nc(N2CC3CCC(CC3)C2)n1 [Antiarthritic Triazine Compound]
Response given: 50

* * *

experiment: physchem; format: physicochemical; settings: ethanol usp, organic solvent or mixture
Property label: solubility

Challenge: Identify measured solubility associated with CC(C)(C)C(C)(C)Nc1nc(NC(C)(C)C(C)(C)C)nc(N2CC3CCC(CC3)C2)n1 [Antiarthritic Triazine Compound]
Response given: < 100 µg/mL

* * *

experiment: Solubility of bisantrene in selected media and biological fluids (Table IB); type: physicochemical; settings: Whole Blood, pH 7.9
Property label: solubility (µg/mL)
Numbers only here, please. The scale is µg/mL.

Challenge: Identify measured solubility associated with C(=N\NC1=NCCN1)/c1c2ccccc2c(/C=N/NC2=NCCN2)c2ccccc12 [Bisantrene]
Response given: 400

* * *

assay: physchem; type: physicochemical; details: benzyl alcohol, organic solvent or mixture
Property label: solubility (µg/mL)
Numbers only here, please. The scale is µg/mL.

Challenge: Identify measured solubility associated with CC(C)(C)C(C)(C)Nc1nc(NC(C)(C)C(C)(C)C)nc(N2CC3CCC(CC3)C2)n1 [Antiarthritic Triazine Compound]
Response given: 800
